Listed below: cytotoxicity at 10 µM values for each entry.
- protocolDescription: Toxicity liver stage against HepG2, at 10uM
- Format: cell-based
- Set-up: test concentration 10 uM, cell line HepG2-A16-CD81EGFP
- experimentalParameters: human, HepG2-A16-CD81EGFP cells; read-out: INHIBITION
Provide the reading as a plain figure in %.

# count of solved cases: 4
Incoming: Entry under review: Cn1cc(C(=O)N2CCCC(Cc3cnccn3)C2)cn1 (stereo not given) . Reported cytotoxicity at 10 µM?
Outgoing: -8.16

Incoming: Entry under review: `CC(C)[C@@H]1CN(c2ccc(F)cn2)C[C@H]1NS(C)(=O)=O` . Reported cytotoxicity at 10 µM?
Outgoing: 3.69

Incoming: Entry under review: `COc1ccccc1C1CCN(c2ccc3cc[nH]c3n2)CC1` . Reported cytotoxicity at 10 µM?
Outgoing: -6.78

Incoming: Entry under review: CCCS(=O)(=O)N1CCC2(CC1)CC(Nc1ncccn1)CO2 (stereo not given) . Reported cytotoxicity at 10 µM?
Outgoing: -0.00726

Others:
Incoming: Entry under review: Cc1nc(CNCC2CN(C)CCO2)cs1 (stereo not given) . Reported cytotoxicity at 10 µM?
Outgoing: -9.16

Incoming: Entry under review: `Fc1ccc(CN2CCO[C@H]3[C@H](Oc4ccccn4)CC[C@@H]32)cc1` . Reported cytotoxicity at 10 µM?
Outgoing: 6.44

Incoming: Entry under review: `CCCc1nc(C)cc(N2CCC3(CCC(=O)N(C4CC4)C3)CC2)n1` . Reported cytotoxicity at 10 µM?
Outgoing: -5.31

Incoming: Entry under review: Cc1nc(C)n(CC2CN(CCOc3ccc(C#N)cc3)CCO2)n1 (stereo not given) . Reported cytotoxicity at 10 µM?
Outgoing: -2.69

Incoming: Entry under review: `O=C(C1CCOCC1)N1CCc2ncc(CN3CCCCC3)n2CC1` . Reported cytotoxicity at 10 µM?
Outgoing: -78.4

Incoming: Entry under review: `CC(C)Oc1ncccc1CNC(=O)c1cc[nH]n1` . Reported cytotoxicity at 10 µM?
Outgoing: -9.12

Incoming: Entry under review: Cc1noc(C2CCN(C(=O)C3CCCO3)CC2)n1 (stereo not given) . Reported cytotoxicity at 10 µM?
Outgoing: 3.95

Incoming: Entry under review: Cn1ccc(C(=O)NC2CCC23CCN(C(=O)c2ccnnc2)CC3)c1 (stereo not given) . Reported cytotoxicity at 10 µM?
Outgoing: -72

Incoming: Entry under review: CC(C)C(NC(=O)NCCNc1ncccn1)c1cccs1 (stereo not given) . Reported cytotoxicity at 10 µM?
Outgoing: 2.71

Incoming: Entry under review: `CC(C)c1ncncc1C(=O)N1CCCN(Cc2cccs2)CC1` . Reported cytotoxicity at 10 µM?
Outgoing: -7.42

Incoming: Entry under review: `O=C(NCCCO)c1cc(-c2ccc3c(c2)CCO3)n[nH]1` . Reported cytotoxicity at 10 µM?
Outgoing: -4.24

----------
- protocolDescription: Toxicity liver stage against HepG2, at 10uM
- Assay type: cell-based
- Parameters: test concentration 10 uM, cell line HepG2-A16-CD81EGFP
- experimentalParameters: human, HepG2-A16-CD81EGFP cells; read-out: INHIBITION
Listed below: cytotoxicity at 10 µM values for each entry.
Provide the reading as a plain figure in %.

# count of solved cases: 3
Incoming: Entry under review: CS(=O)(=O)NCCC1CCCCN1C(=O)NCCc1ccccc1 (centres undefined) . Reported cytotoxicity at 10 µM?
Outgoing: -6

Incoming: Entry under review: COc1ccc2c(c1)NC(=O)C2OC(=O)Cc1ccccc1C (centres undefined) . Reported cytotoxicity at 10 µM?
Outgoing: 45.2

Incoming: Entry under review: C1CCC(c2nc3c(c(N4CCN5CCCC5C4)n2)CCNCC3)C1 (centres undefined) . Reported cytotoxicity at 10 µM?
Outgoing: -1.1

Others:
Incoming: Entry under review: `COc1cc(C(C)=O)ccc1SCC(=O)Nc1cc(C)n[nH]1` . Reported cytotoxicity at 10 µM?
Outgoing: 9.83

Incoming: Entry under review: Cn1ccnc1CN1CCC2(CC(=O)N(c3ccsc3)C2)C1 (centres undefined) . Reported cytotoxicity at 10 µM?
Outgoing: -82.7

Incoming: Entry under review: `N#Cc1ccccc1CN(CC(N)=O)C1CCCC1` . Reported cytotoxicity at 10 µM?
Outgoing: 10.4

Incoming: Entry under review: Cc1nc(C2CN(Cc3scnc3C)CCO2)cc(N(C)C)n1 (centres undefined) . Reported cytotoxicity at 10 µM?
Outgoing: -12.3

Incoming: Entry under review: Cc1nc(CN2C(=O)CC[C@@H]3[C@H]2CCN3C(=O)C2CCCO2)cs1 (some centres undefined) . Reported cytotoxicity at 10 µM?
Outgoing: -9.33

Incoming: Entry under review: `CCOC(=O)N1CCN(C(=O)c2ccc3ccn(C)c3c2)CC1` . Reported cytotoxicity at 10 µM?
Outgoing: -6.57

Incoming: Entry under review: OC(COCc1cccs1)CN1CCC(c2ccn[nH]2)CC1 (centres undefined) . Reported cytotoxicity at 10 µM?
Outgoing: -2.66

Incoming: Entry under review: Cc1nc(NCC(O)CN2CCCCCC2)c2c(C)nn(C)c2n1 (centres undefined) . Reported cytotoxicity at 10 µM?
Outgoing: -2.86

Incoming: Entry under review: `O=C(NCCC(=O)N1CCCC1)c1cccnc1` . Reported cytotoxicity at 10 µM?
Outgoing: 11

Incoming: Entry under review: Cc1oncc1C(=O)N1CCC2(CCN(Cc3cccc(F)c3)C2=O)C1 (centres undefined) . Reported cytotoxicity at 10 µM?
Outgoing: -142

Incoming: Entry under review: O=c1ccc2c([nH]1)CCC(NCc1ccc(F)cc1)C2 (centres undefined) . Reported cytotoxicity at 10 µM?
Outgoing: -1.87

Incoming: Entry under review: `CCO[C@@H]1CO[C@@]2(CCCN(C(=O)c3ccc(OC)c(F)c3)C2)C1` . Reported cytotoxicity at 10 µM?
Outgoing: 3.02

Incoming: Entry under review: `O=C(c1ccncc1)N1C[C@@H]2OCCN(CCN3CCCC3)[C@@H]2C1` . Reported cytotoxicity at 10 µM?
Outgoing: -77.1

Incoming: Entry under review: `O=C(CS(=O)(=O)Cc1nnnn1C1CC1)NCC1CC1` . Reported cytotoxicity at 10 µM?
Outgoing: 16.6

Incoming: Entry under review: `O=C(c1ccco1)N1CCc2c(nc(-c3ccncc3)[nH]c2=O)C1` . Reported cytotoxicity at 10 µM?
Outgoing: 10.4

Incoming: Entry under review: `COc1ccsc1C(=O)Nc1cc(Br)c(=O)n(C)c1` . Reported cytotoxicity at 10 µM?
Outgoing: -11

----------
- protocolDescription: Toxicity liver stage against HepG2, at 10uM
- Format: cell-based
- Design: test concentration 10 uM, cell line HepG2-A16-CD81EGFP
- experimentalParameters: human, HepG2-A16-CD81EGFP cells; read-out: INHIBITION
Listed below: cytotoxicity at 10 µM values for each entry.
Provide the reading as a plain figure in %.

# count of solved cases: 5
Incoming: Entry under review: `O=c1[nH]c(CN(Cc2ccco2)C2CCCC2)nc2ccccc12` . Reported cytotoxicity at 10 µM?
Outgoing: 11.6

Incoming: Entry under review: Cn1nccc1-c1nnn2c1COCC(CNCC1CC1)C2 (stereo not given) . Reported cytotoxicity at 10 µM?
Outgoing: -98.8

Incoming: Entry under review: `CN(C)C[C@@H]1CN(C2CCN(c3ccc(Cl)cc3)CC2)C[C@@H]1CO` . Reported cytotoxicity at 10 µM?
Outgoing: -9.14

Incoming: Entry under review: CCCC(NC(=O)c1ccc(C)cc1C)c1nnn[nH]1 (stereo not given) . Reported cytotoxicity at 10 µM?
Outgoing: -3.82

Incoming: Entry under review: `Cn1ccnc1CNC(=O)c1cnc(C2CCNCC2)cn1` . Reported cytotoxicity at 10 µM?
Outgoing: -1.31

Others:
Incoming: Entry under review: Cc1cccc(S(=O)(=O)N2CSCC2C(=O)NC(C)(C)C)c1 (stereo not given) . Reported cytotoxicity at 10 µM?
Outgoing: -3.75

Incoming: Entry under review: `COc1cc(N2C[C@@H]3COC[C@@H](Cc4nc(C)no4)[C@@H]3C2)ncn1` . Reported cytotoxicity at 10 µM?
Outgoing: -105

Incoming: Entry under review: `Cn1cnc2c1CCN(CCCOc1ccc(C#N)cc1)C2` . Reported cytotoxicity at 10 µM?
Outgoing: -12.4

----------
- protocolDescription: Toxicity liver stage against HepG2, at 10uM
- Assay type: cell-based
- Design: test concentration 10 uM, cell line HepG2-A16-CD81EGFP
- experimentalParameters: human, HepG2-A16-CD81EGFP cells; read-out: INHIBITION
quantityName: cytotoxicity at 10 µM (%)
Provide the reading as a plain figure in %.

Incoming: Entry under review: `Cc1cnn(CCNCc2ccc(OCc3cscn3)cc2)c1` . Reported cytotoxicity at 10 µM?
Outgoing: -5.48

Incoming: Entry under review: CC(C)c1cnc(CN(C)C2CCN(CCc3cnn(C)c3)C2)o1 (stereo not given) . Reported cytotoxicity at 10 µM?
Outgoing: -7.12

Incoming: Entry under review: Cc1cc(NC(=O)CCN2CCCC2Cn2cccn2)no1 (stereo not given) . Reported cytotoxicity at 10 µM?
Outgoing: -5.09

Incoming: Entry under review: `Cc1ccc(-c2noc(CN3CCc4cncnc4C3)n2)cc1` . Reported cytotoxicity at 10 µM?
Outgoing: 1.04

Incoming: Entry under review: `O=C1CC[C@H]2[C@H](CCN2S(=O)(=O)C2CC2)N1CCN1CCCC1` . Reported cytotoxicity at 10 µM?
Outgoing: -88.9

Incoming: Entry under review: `CN(C)c1ncnc2c1CCN(c1cccc(F)c1)CC2` . Reported cytotoxicity at 10 µM?
Outgoing: 18.5

Incoming: Entry under review: Cc1ccc(O)c(CN2CCCCC2CCN2CCOCC2)c1 (stereo not given) . Reported cytotoxicity at 10 µM?
Outgoing: 4.25

Incoming: Entry under review: Cc1ccc(C)c(-n2ncc(NC(=O)NC3(C)CCOC3)c2C)c1 (stereo not given) . Reported cytotoxicity at 10 µM?
Outgoing: -41.6

Incoming: Entry under review: `Cc1cc(C)n(C2CN(CC(=O)N(C)Cc3ccco3)C2)n1` . Reported cytotoxicity at 10 µM?
Outgoing: -4.42

Incoming: Entry under review: `Cc1ncsc1C(=O)NCc1cccnc1N(C)CCc1ccccn1` . Reported cytotoxicity at 10 µM?
Outgoing: -14.5

Others:
Incoming: Entry under review: `CN(C)CC(=O)N1CCc2cccc(S(=O)(=O)N3CCOCC3)c2C1` . Reported cytotoxicity at 10 µM?
Outgoing: 6.8

Incoming: Entry under review: Cc1ccc(OCCN2CCCC(c3cc(C(N)=O)[nH]n3)C2)cc1 (stereo not given) . Reported cytotoxicity at 10 µM?
Outgoing: -9.14

Incoming: Entry under review: `N#Cc1cc(F)c(NCCc2ccc(S(N)(=O)=O)cc2)c(F)c1` . Reported cytotoxicity at 10 µM?
Outgoing: -53.9

Incoming: Entry under review: CCc1c(C(=O)N2CC(C)OC(C)(C)C2)cnn1-c1ccccn1 (stereo not given) . Reported cytotoxicity at 10 µM?
Outgoing: -2.51

Incoming: Entry under review: Cc1nn(C)c(Cl)c1C1CCCN1C(=O)c1cccn1C (stereo not given) . Reported cytotoxicity at 10 µM?
Outgoing: -5.53

Incoming: Entry under review: COCCC(=O)NCC1CCC(C(c2ccccn2)N(C)C)CC1 (stereo not given) . Reported cytotoxicity at 10 µM?
Outgoing: 11.5

Incoming: Entry under review: `CNC(=O)CS(=O)(=O)C1CCN(S(=O)(=O)c2ccccc2Cl)CC1` . Reported cytotoxicity at 10 µM?
Outgoing: 11.7

Incoming: Entry under review: `CC(C)C(=O)N1CCC[C@]2(C(=O)N(C)C)CN(c3ccccn3)C[C@@H]2C1` . Reported cytotoxicity at 10 µM?
Outgoing: 30.7

Incoming: Entry under review: `Cc1c(C(=O)NCC(C)C)nnn1-c1cccc2c1CCN(CCO)C2` . Reported cytotoxicity at 10 µM?
Outgoing: 8.09

Incoming: Entry under review: `O=C(NC1CCCC1)N1C[C@H]2CN(c3ccccn3)C[C@@]2(C(=O)O)C1` . Reported cytotoxicity at 10 µM?
Outgoing: 6.12
